Give measured IC50 for each item. Keep answers brief.
# targetUnderTest: PDGFRβ (Homo sapiens, UniProt P09619)
# Sequence (P09619 33-1106): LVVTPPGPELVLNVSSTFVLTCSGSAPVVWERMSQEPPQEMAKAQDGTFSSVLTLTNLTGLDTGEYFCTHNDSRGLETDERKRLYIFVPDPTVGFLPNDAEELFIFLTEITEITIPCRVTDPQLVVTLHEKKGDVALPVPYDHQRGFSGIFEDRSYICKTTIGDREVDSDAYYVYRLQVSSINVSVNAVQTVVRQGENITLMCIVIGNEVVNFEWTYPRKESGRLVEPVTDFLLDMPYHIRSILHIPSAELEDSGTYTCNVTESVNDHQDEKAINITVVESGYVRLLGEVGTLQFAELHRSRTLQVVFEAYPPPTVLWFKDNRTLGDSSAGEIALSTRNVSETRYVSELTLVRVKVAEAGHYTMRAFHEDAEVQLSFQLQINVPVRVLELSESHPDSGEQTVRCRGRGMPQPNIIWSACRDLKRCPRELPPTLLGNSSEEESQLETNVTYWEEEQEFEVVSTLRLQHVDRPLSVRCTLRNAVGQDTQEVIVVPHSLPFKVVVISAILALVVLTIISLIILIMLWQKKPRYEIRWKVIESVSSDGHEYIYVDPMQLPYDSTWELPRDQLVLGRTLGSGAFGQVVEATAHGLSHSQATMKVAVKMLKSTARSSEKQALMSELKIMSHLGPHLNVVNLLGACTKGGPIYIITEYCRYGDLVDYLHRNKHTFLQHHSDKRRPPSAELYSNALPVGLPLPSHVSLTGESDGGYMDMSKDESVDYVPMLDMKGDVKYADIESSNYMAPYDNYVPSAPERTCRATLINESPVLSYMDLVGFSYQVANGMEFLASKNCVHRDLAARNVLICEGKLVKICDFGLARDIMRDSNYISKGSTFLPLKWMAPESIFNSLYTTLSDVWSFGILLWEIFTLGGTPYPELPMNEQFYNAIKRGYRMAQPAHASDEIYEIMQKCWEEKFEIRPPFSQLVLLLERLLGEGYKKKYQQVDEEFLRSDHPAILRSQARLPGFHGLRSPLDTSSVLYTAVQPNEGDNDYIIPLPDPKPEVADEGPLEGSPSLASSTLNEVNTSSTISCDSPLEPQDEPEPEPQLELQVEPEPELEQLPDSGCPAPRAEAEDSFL
# method: PAE-PDGFRβ Phosphorylation in PAE-PDGFRB Cells Assay
# conditionInfo: PAE cells overexpressing human PDGFRβ; read-out: PAE PDGFR autophos IC50
Give bare numbers, in nM.

In the examples that follow, each entry is paired with its recorded IC50.
C#CCNC(=O)c1ccccc1Nc1ccc2c(/C=C/c3cc(C)cc(C)n3)n[nH]c2c1 : 6
C#CCNC(=O)c1ccccc1Nc1ccc2c(/C=N/n3cccc3)n[nH]c2c1 : 2.4
O=C(NCC#CC1CC1)c1ccccc1Nc1ccc2c(/C=N/n3cccc3)n[nH]c2c1 : 3.7

Now consider a different compound.
Q. IC50 for C#CCNC(=O)c1ccccc1Nc1ccc2c(/C=C/c3cc(C)ccn3)n[nH]c2c1 ?
A. 0.5

* * *

# targetUnderTest: PDGFRβ (Homo sapiens)
# method: PAE-PDGFRβ Phosphorylation in PAE-PDGFRB Cells Assay
# conditionInfo: PAE cells overexpressing human PDGFRβ; read-out: PAE PDGFR autophos IC50
Could you please mark Met for values of IC50 below 6 nM and Not met for values at or above it?

O=C(NCc1ccco1)c1ccccc1Nc1ccc2c(/C=C/c3ccccn3)n[nH]c2c1 : Met

Switching to the query record.
Q. I'd appreciate it if you could check whether Cc1cc(CNC(=O)c2ccccc2Nc2ccc3c(/C=C/c4ccccn4)n[nH]c3c2)n(C)n1 has IC50 smaller than 6 nM.
A. Met

* * *

# targetUnderTest: LCK (Homo sapiens, UniProt P06239, C224D/P223M)
# Construct: starting from amino acid residue 223 to the end of the protein at residue 509; made in house; host or cells: insect cells
# Sequence (P06239 223-509 P223M/C224D): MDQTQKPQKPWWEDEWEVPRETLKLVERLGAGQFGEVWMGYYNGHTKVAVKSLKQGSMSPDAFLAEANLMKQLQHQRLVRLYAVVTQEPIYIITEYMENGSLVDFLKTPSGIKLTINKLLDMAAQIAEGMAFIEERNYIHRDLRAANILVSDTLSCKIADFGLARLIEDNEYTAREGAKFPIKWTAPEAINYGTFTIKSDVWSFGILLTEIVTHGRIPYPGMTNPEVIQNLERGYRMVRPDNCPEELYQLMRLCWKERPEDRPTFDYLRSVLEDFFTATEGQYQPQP
# method: Lymphocyte-Specific Protein-Tyrosine Kinase (LCK) spectrophotometric assay
# Assay type: biochemical
# conditionInfo: 1 μM compound; read-out: LckP* % inhibit @1 μM
The threshold is inclusive: inhibition at 1 µM of exactly 30% counts as T; values below receive F.

See these solved cases before continuing.
C=CCONC(=O)c1ccccc1Nc1ccc2c(/C=C/c3ccccn3)n[nH]c2c1 : F
O=C(NCc1ccco1)c1ccccc1Nc1ccc2c(/C=C/c3ccccn3)n[nH]c2c1 : F
O=C(NCc1ccccc1)c1ccccc1Nc1ccc2c(/C=C/c3ccccn3)n[nH]c2c1 : F

Q. Given the entry O=C(NC1CCC1)c1ccccc1Nc1ccc2c(/C=C/c3ccccn3)n[nH]c2c1 , answer whether its inhibition at 1 µM meets or surpasses 30%.
A. F

Q. Given the entry COc1ccccc1CNC(=O)c1ccccc1Nc1ccc2c(/C=C/c3ccccn3)n[nH]c2c1 , answer whether its inhibition at 1 µM meets or surpasses 30%.
A. T

* * *

Give measured inhibition at 1 µM for each item. Keep answers brief.
# targetUnderTest: FGF-R1 (Homo sapiens, UniProt P11362, C488A/C584S/L457V)
# Construct: starting from the endogenous methionine residue 456 to glutamate 766; made in house; host or cells: baculovirus vector expression system
# Sequence (P11362 456-766 L457V/C488A/C584S): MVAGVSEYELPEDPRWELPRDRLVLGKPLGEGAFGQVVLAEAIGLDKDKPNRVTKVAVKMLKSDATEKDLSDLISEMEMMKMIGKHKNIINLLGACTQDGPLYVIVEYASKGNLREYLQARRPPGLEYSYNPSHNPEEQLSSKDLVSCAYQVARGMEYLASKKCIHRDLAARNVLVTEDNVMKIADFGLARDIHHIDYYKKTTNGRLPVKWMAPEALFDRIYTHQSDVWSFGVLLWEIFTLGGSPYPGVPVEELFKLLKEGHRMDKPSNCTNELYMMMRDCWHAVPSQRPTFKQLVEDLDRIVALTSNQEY
# method: Fibroblast Growth Factor (FGF-R) spectrophotometric assay
# Format: biochemical
# conditionInfo: 1 μM compound; read-out: FGF-P % inhibit @1 μM
# Text: The intracellular kinase domain of human FGF-R1 was expressed using the baculovirus vector expression system starting from the endogenous methionine residue 456 to glutamate 766, according to the residue numbering system of Mohammadi et al., Mol. Cell. Biol., 16, 977–989 (1996). In addition, the construct also has the following 3 amino acid substitutions: L457V, C488A, and C584S. […]
Answers are plain numbers, in %.

In the examples that follow, each entry is paired with its recorded inhibition at 1 µM.
CONC(=O)c1ccccc1Nc1ccc2c(/C=C/c3ccccn3)n[nH]c2c1 [Example 3(a)] : 99
Cc1ccnc(/C=C/c2n[nH]c3cc(Nc4ccccc4C(=O)NCc4nccn4C)ccc23)c1 [Example 49] : 36
O=C(NCC#CC1CC1)c1ccccc1Nc1ccc2c(/C=N/n3cccc3)n[nH]c2c1 [Example 55] : 67
Cc1ccnc(/C=C/c2n[nH]c3cc(Nc4ccccc4C(=O)NCc4nc5ccccc5n4C)ccc23)c1 [Example 45] : 24
O=C(NC1CC1)c1ccccc1Nc1ccc2c(/C=C/c3ccccn3)n[nH]c2c1 [Example 3(d)] : 80

Your task in this section: give inhibition at 1 µM for each listed record.
1. Cc1ccnc(/C=C/c2n[nH]c3cc(Nc4ccccc4C(=O)NCc4cc(C)nn4C)ccc23)c1 [Example 41]
2. Cc1ccnc(/C=C/c2n[nH]c3cc(Nc4ccccc4C(=O)NCc4cccc(C)n4)ccc23)c1 [Example 39]

A.
1. 11
2. 76

Q. inhibition at 1 µM for COc1ccccc1CNC(=O)c1ccccc1Nc1ccc2c(/C=C/c3ccccn3)n[nH]c2c1 [Example 3(h)] ?
A. 85

* * *

# method: Mouse PK Assay
# Assay type: in vivo
# conditionInfo: female, B6, plasma, ip, intraperitoneal, read-out: Mouse pK, AUC, ip
readoutType: AUC

Q. AUC for COC(=O)C(C(=O)OC)c1ccc(Cl)cc1[N+](=O)[O-] [Example 1(a)] ?
A. 690 ng·h/mL

* * *

# targetUnderTest: unphosphorylated VEGF-R2Δ50 (Homo sapiens, UniProt P35968, DEL940-989/E990V)
# Construct: VEGF-R2Δ50 contains residues 806–939 and 990–1171; made in house; host or cells: baculovirus/insect cell system
# Sequence (P35968 with tags, fused parts or gaps DEL940-989/E990V limits assumed): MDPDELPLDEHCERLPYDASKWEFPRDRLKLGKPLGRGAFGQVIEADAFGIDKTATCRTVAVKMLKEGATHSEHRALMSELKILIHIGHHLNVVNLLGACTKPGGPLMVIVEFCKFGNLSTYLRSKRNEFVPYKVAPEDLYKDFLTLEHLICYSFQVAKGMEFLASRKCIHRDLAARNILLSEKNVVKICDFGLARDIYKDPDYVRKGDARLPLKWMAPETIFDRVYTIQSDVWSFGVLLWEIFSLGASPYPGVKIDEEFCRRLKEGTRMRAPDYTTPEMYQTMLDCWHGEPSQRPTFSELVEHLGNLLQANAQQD
# method: VEGF-R2 coupled spectrophotometric assay, unphosphorylated construct (FLVK)
# Assay type: biochemical
# conditionInfo: % inhibition at 50 nM compound; read-out: FLVK Ki % inh @ 50 nM
Give measured inhibition at 0.05 µM for each item. Keep answers brief.
Param answer (str): number followed by unit.

In the examples that follow, each entry is paired with its recorded inhibition at 0.05 µM.
C=C(C)CNC(=O)c1ccccc1Nc1ccc2c(/C=C/c3cc(C)cc(C)n3)n[nH]c2c1 [Example 15] : 64%
O=C(NCC#CC1CC1)c1ccccc1Nc1ccc2c(/C=N/n3cccc3)n[nH]c2c1 [Example 55] : 97%

Your task in this section: give inhibition at 0.05 µM for each listed record.
1. Cc1ccnc(/C=C/c2n[nH]c3cc(Nc4ccccc4C(=O)NCC#CC4CC4)ccc23)c1 [Example 36]
2. Cc1cc(C)nc(/C=C/c2n[nH]c3cc(Nc4ccccc4C(=O)NCC#CCO)ccc23)c1 [Example 10]

A.
1: 95%; 2: 76%

Your task in this section: give inhibition at 0.05 µM for each listed record.
1. C#CCNC(=O)c1ccccc1Nc1ccc2c(C(=O)NC)n[nH]c2c1 [Example 1(k)]
2. Cc1ccnc(/C=C/c2n[nH]c3cc(Nc4ccccc4C(=O)NC4CC4)ccc23)c1 [Example 2(h)]
3. C=C(C)CNC(=O)c1ccccc1Nc1ccc2c(/C=C/c3cc(C)ccn3)n[nH]c2c1 [Example 34]
4. O=C(NCc1ccccc1)c1ccccc1Nc1ccc2c(/C=C/c3ccccn3)n[nH]c2c1 [Example 3(g)]

A.
27%
84%
72%
95%

* * *

# targetUnderTest: unphosphorylated VEGF-R2Δ50 (Homo sapiens, UniProt P35968, DEL940-989/E990V)
# Construct: VEGF-R2Δ50 contains residues 806–939 and 990–1171; made in house; host or cells: baculovirus/insect cell system
# method: VEGF-R2 coupled spectrophotometric assay, unphosphorylated construct (FLVK)
# Assay type: biochemical
# conditionInfo: % inhibition at 50 nM compound; read-out: FLVK Ki % inh @ 50 nM
Give measured inhibition at 0.05 µM for each item. Keep answers brief.
Numbers only, in %.

In the examples that follow, each entry is paired with its recorded inhibition at 0.05 µM.
O=C(NCC#CCO)c1ccccc1Nc1ccc2c(/C=C/c3ccccn3)n[nH]c2c1 [Example 64] : 94
Cc1ccnc(/C=C/c2n[nH]c3cc(Nc4ccccc4C(=O)NCC#CCO)ccc23)c1 [Example 51] : 82

Your task in this section: give inhibition at 0.05 µM for each listed record.
1. Cc1ccnc(/C=C/c2n[nH]c3cc(Nc4ccccc4C(=O)NCc4ccncc4)ccc23)c1 [Example 38]
2. C#CCNC(=O)c1ccccc1Nc1ccc2c(/C=N/n3cccc3)n[nH]c2c1 [Example 63]
3. Cc1ccnc(/C=C/c2n[nH]c3cc(Nc4ccccc4C(=O)NCc4nccn4C)ccc23)c1 [Example 49]
4. C=CCONC(=O)c1ccccc1Nc1ccc2c(/C=C/c3ccccn3)n[nH]c2c1 [Example 3(b)]
5. CC(C)ONC(=O)c1ccccc1Nc1ccc2c(/C=C/c3ccccn3)n[nH]c2c1 [Example 3(c)]
6. CONC(=O)c1ccccc1Nc1ccc2c(/C=C/c3ccccn3)n[nH]c2c1 [Example 3(a)]

A.
[75, 85, 11, 98, 91, 98]

* * *

Give measured inhibition at 1 µM for each item. Keep answers brief.
# targetUnderTest: FGF-R1 (Homo sapiens, UniProt P11362, C488A/C584S/L457V)
# Construct: starting from the endogenous methionine residue 456 to glutamate 766; made in house; host or cells: baculovirus vector expression system
# method: Fibroblast Growth Factor (FGF-R) spectrophotometric assay
# Type: biochemical
# conditionInfo: 1 μM compound; read-out: FGF-P % inhibit @1 μM
Numbers only, in %.

In the examples that follow, each entry is paired with its recorded inhibition at 1 µM.
Cc1ccnc(/C=C/c2n[nH]c3cc(Nc4ccccc4C(=O)NCC#CCO)ccc23)c1 : 52
O=C(NC1CCC1)c1ccccc1Nc1ccc2c(/C=C/c3ccccn3)n[nH]c2c1 : 43

Now consider a different compound.
Q. Item O=C(NCC#CCO)c1ccccc1Nc1ccc2c(/C=C/c3ccccn3)n[nH]c2c1 with FGF-R1 (Homo sapiens, UniProt P11362, C488A/C584S/L457V) - inhibition at 1 µM?
A. 39
